The reported measurements were obtained from ChEMBL document CHEMBL1275447.

# Test name: Elimination rate constant in Pseudomonas aeruginosa ATCC 27853 infected neutropenic ICR mouse at 10 mg/kg, sc administered as single dose 2 hrs postinfection
# Format: ADME, organism-based
# Set-up: dose 10 mg/kg, route subcutaneous
# Test conditions: in vivo

{"columns": ["Compound string", "Measurement units", "k el at 2 h"],
 "data": [
  ["C[C@@H](O)[C@H]1C(=O)N2C(C(=O)O)=C(S[C@@H]3CN[C@H](CNS(N)(=O)=O)C3)[C@H](C)[C@H]12", "s⁻¹", 0.000467]
]}

###

# Test name: Cmax in Pseudomonas aeruginosa ATCC 27853 infected neutropenic ICR mouse at 150 mg/kg, sc administered as single dose 2 hrs postinfection by HPLC
# Assay type: ADME, organism-based
# Design: dose 150 mg/kg, route subcutaneous
# Test conditions: in vivo

{"columns": ["Molecule", "Cmax (µg/mL)"],
 "data": [
  ["C[C@@H](O)[C@H]1C(=O)N2C(C(=O)O)=C(S[C@@H]3CN[C@H](CNS(N)(=O)=O)C3)[C@H](C)[C@H]12 [DORIPENEM]", 194]
]}

###

# Test name: Clearance in Pseudomonas aeruginosa ATCC 27853 infected neutropenic ICR mouse at 150 mg/kg, sc administered as single dose 2 hrs postinfection
# Assay type: ADME, organism-based
# Parameters: dose 150 mg/kg, route subcutaneous
# Test conditions: in vivo
Assay endpoint: CL/F (mL/min/kg)

{"columns": ["Compound", "Result number"],
 "data": [
  ["C[C@@H](O)[C@H]1C(=O)N2C(C(=O)O)=C(S[C@@H]3CN[C@H](CNS(N)(=O)=O)C3)[C@H](C)[C@H]12 [DORIPENEM]", 14.2]
]}

###

# Test name: Cmax in healthy human at 500 mg administered as 1 hr infusion
# Type: ADME, organism-based
# Parameters: dose 500 mg
# Test conditions: in vivo, iv
Assay endpoint: Cmax

{"columns": ["Compound", "Assay endpoint", "Result"],
 "data": [
  ["C[C@@H](O)[C@H]1C(=O)N2C(C(=O)O)=C(S[C@@H]3CN[C@H](CNS(N)(=O)=O)C3)[C@H](C)[C@H]12 [DORIPENEM]", "Cmax", "21800 ng/mL"]
]}

###

# Test name: Cmax in Pseudomonas aeruginosa ATCC 27853 infected neutropenic ICR mouse at 500 mg administered as 1 hr infusion
# Format: ADME, organism-based
# Design: dose 500 mg
# Test conditions: in vivo, iv

{"columns": ["Compound string", "Cmax, ng/mL"],
 "data": [
  ["C[C@@H](O)[C@H]1C(=O)N2C(C(=O)O)=C(S[C@@H]3CN[C@H](CNS(N)(=O)=O)C3)[C@H](C)[C@H]12", 28400]
]}

###

# Test name: Cmax in Pseudomonas aeruginosa ATCC 27853 infected neutropenic ICR mouse at 5.5, 2.25, 4.5, 4.5, 4.5, 4.5, 0.75, and 0.375 mg/kg given at 0, 0.5, 1.5, 2.5, 3.5, 4.5, 6, and 7.5 h over 24 h
# Format: ADME, organism-based
# Set-up: dose 0.375 mg/kg
# Test conditions: in vivo

{"columns": ["Compound string", "Cmax (ng/mL)"],
 "data": [
  ["C[C@@H](O)[C@H]1C(=O)N2C(C(=O)O)=C(S[C@@H]3CN[C@H](CNS(N)(=O)=O)C3)[C@H](C)[C@H]12", 7990]
]}
